Target: ALK tyrosine kinase receptor (Homo sapiens, UniProt Q9UM73, L1196M)
Sequence (Q9UM73 19-1620 L1196M limits assumed): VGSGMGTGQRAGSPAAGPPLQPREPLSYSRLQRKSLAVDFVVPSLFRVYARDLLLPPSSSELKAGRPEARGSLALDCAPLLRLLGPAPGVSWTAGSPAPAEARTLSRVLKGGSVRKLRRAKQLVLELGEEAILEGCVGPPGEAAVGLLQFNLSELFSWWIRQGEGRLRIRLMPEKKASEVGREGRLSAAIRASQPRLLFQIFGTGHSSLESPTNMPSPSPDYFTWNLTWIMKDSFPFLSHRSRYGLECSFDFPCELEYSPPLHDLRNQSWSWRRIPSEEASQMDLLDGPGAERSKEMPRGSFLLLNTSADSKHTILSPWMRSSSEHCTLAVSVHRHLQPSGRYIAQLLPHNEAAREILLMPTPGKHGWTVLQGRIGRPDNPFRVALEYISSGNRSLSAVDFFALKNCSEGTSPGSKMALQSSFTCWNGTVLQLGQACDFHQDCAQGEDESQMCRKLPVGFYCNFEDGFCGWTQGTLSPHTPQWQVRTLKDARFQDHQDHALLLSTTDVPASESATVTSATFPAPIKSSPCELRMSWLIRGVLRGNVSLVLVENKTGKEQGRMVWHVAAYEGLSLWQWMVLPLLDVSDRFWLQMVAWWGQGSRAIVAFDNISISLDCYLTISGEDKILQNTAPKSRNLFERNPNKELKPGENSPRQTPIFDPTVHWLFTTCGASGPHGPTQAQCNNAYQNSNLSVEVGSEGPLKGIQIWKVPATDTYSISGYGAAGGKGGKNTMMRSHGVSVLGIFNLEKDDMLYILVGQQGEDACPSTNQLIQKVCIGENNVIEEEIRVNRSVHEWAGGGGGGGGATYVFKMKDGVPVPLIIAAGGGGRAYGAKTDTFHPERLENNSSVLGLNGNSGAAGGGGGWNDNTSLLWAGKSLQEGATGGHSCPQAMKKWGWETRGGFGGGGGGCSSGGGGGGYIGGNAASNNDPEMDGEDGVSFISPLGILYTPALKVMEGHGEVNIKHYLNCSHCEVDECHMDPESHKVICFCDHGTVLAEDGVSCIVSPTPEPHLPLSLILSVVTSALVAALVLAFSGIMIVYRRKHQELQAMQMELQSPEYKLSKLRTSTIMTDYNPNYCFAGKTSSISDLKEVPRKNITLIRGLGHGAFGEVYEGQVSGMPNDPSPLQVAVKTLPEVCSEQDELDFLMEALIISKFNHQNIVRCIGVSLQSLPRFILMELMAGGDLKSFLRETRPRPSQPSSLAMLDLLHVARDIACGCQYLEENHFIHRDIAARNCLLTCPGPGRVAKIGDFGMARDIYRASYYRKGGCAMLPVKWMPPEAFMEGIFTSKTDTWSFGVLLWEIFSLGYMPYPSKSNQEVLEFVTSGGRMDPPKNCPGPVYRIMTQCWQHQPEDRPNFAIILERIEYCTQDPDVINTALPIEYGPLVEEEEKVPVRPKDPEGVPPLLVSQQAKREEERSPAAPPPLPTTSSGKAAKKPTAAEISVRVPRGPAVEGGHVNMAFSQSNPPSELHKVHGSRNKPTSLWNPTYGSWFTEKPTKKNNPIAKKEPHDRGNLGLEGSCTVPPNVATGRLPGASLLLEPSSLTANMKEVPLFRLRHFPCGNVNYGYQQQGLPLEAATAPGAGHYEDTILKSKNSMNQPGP
Assay: Binding affinity to human recombinant ALK L1196M mutant (1093 to 1411 residues) assessed as inhibition constant using 5'FAM-KKSRGDYMTMQIG-CONH2 peptide as substrate in presence of ATP by micro-fluidic mobility shift assay
Attribute Measured: pKi
// scale note: pKi = -log10(conc_M); give the bare number

Return pKi measured with ALK tyrosine kinase receptor (Homo sapiens, UniProt Q9UM73, L1196M) given this molecule: "CN1Cc2nn(C)c(C#N)c2-c2cnc(N)c(c2)OCc2cc(F)ccc2C1=O"
6.56
